Assay: Binding affinity for rat alpha-3 beta2/3 gamma2 GABA-A/BzR receptor
measuredParameter: Ki

1. Cc1ccc(-c2nn3ccc(C)nc3c2CC(=O)N(C)C)cc1: > 10 µM

---

Experiment: Binding affinity for rat alpha-1 beta2/3 gamma2 GABA A / BzR receptor
measuredParameter: Ki (nM)

1) Cc1ccc(-c2nn3ccc(C)nc3c2CC(=O)N(C)C)cc1: 31
